Test: Cytotoxicity Test I: virus-uninfected MT-4 cells, MTT method
Assay type: cell-based
Conditions: human, MT-4 cells (virus-uninfected); virus-uninfected MT-4 cells, MTT method; read-out: CC50 (Test I), 50% survival concentration
Where a SMILES comes first, the peptide text is derived from it. Bridges are numbered along the chain shown (N, C = ends). [ ]: non-standard residue; d: D form. 2Nal = N[C@@H](Cc1ccc2ccccc2c1)C(=O)O; Cit = NC(=O)NCCC[C@H](N)C(=O)O
Listing: CC50 of selected compounds

// fetch CC50 given entry N=C(N)NCCC[C@H](NC(=O)[C@@H]1CSSC[C@H](NC(=O)[C@H](Cc2ccc3ccccc3c2)NC(=O)[C@H](CCCNC(=N)N)NC(=O)[C@@H](N)CCCNC(=N)N)C(=O)N[C@@H](Cc2ccc(O)cc2)C(=O)N[C@@H](CCCNC(=N)N)C(=O)N[C@@H](CCCCN)C(=O)N[C@H](CCCNC(N)=O)C(=O)N2CCC[C@H]2C(=O)N[C@@H](Cc2ccc(O)cc2)C(=O)N[C@@H](CCCNC(=N)N)C(=O)N[C@@H](CCCNC(N)=O)C(=O)N1)C(N)=O
> 100 µM

Please give the documented CC50 of NCCCC[C@H]1NC(=O)[C@H](CCCNC(N)=O)NC(=O)[C@H](CCCN=C(N)N)NC(=O)[C@H](Cc2ccc(O)cc2)NC(=O)[C@@H](NC(=O)[C@H](Cc2ccc3ccccc3c2)NC(=O)[C@H](CCCN=C(N)N)NC(=O)[C@@H](N)CCCN=C(N)N)CSSC[C@@H](C(=O)N[C@@H](CCCN=C(N)N)C(=O)O)NC(=O)[C@H](CCCNC(N)=O)NC(=O)[C@H](CCCN=C(N)N)NC(=O)[C@H](Cc2ccc(O)cc2)NC(=O)[C@@H]2CCCN2C1=O [TC14004] (H-RR[2Nal]CYR[Cit][dK]PYR[Cit]CR-OH; disulfide 4-13)
> 80 µM

Name the recorded CC50 of the compound listed here: C[C@@H]1NC(=O)[C@H](Cc2ccc(O)cc2)NC(=O)[C@@H](NC(=O)[C@H](Cc2ccc3ccccc3c2)NC(=O)[C@H](CCCN=C(N)N)NC(=O)[C@@H](N)CCCN=C(N)N)CSSC[C@@H](C(=O)N[C@@H](CCCN=C(N)N)C(=O)O)NC(=O)[C@H](CCCNC(N)=O)NC(=O)[C@H](CCCN=C(N)N)NC(=O)[C@H](Cc2ccc(O)cc2)NC(=O)[C@@H]2CCCN2C(=O)[C@@H](CCCCN)NC(=O)[C@H](CCCCN)NC1=O [TA14005] (H-RR[2Nal]CYAK[dK]PYR[Cit]CR-OH; disulfide 4-13)
> 40 µM

Specify reported CC50 for the compound shown: C[C@H](N)C(=O)N[C@@H](CCCNC(=N)N)C(=O)N[C@@H](Cc1ccc2ccccc2c1)C(=O)N[C@H]1CSSC[C@@H](C(=O)N[C@@H](CCCNC(=N)N)C(=O)O)NC(=O)[C@H](CCCNC(N)=O)NC(=O)[C@H](CCCNC(=N)N)NC(=O)[C@H](Cc2ccc(O)cc2)NC(=O)[C@@H]2CCCN2C(=O)[C@@H](CCCCN)NC(=O)[C@H](CCCCN)NC(=O)[C@H](CCCNC(=N)N)NC(=O)[C@H](Cc2ccc(O)cc2)NC1=O [TA14001] (H-AR[2Nal]CYRK[dK]PYR[Cit]CR-OH; disulfide 4-13)
> 40 µM

Cited source: patent US8435939B2
